- ASSAYED_SYSTEM: NRAS Q61R (Homo sapiens (Human), UniProt P01111+P62937, Q61R)
- Sequence (P01111 whole entry Q61R): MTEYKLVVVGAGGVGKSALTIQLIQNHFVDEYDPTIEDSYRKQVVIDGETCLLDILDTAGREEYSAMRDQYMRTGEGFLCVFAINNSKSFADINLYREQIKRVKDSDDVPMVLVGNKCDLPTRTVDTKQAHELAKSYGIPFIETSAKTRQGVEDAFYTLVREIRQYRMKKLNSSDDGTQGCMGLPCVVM
- Sequence (P62937 whole entry): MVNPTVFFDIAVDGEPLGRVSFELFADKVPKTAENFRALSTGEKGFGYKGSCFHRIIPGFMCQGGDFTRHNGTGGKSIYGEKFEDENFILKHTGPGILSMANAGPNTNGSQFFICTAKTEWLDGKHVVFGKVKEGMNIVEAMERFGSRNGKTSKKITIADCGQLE
- EXPERIMENT_DESCRIPTION: Ras-Raf (BRAF RBD) disruption / FRET / MOA assay, NRAS Q61R
- Assay type: biochemical
- CONDITION_PARAMETERS: NRAS Q61R; Ras-Raf disruption/FRET/MOA assay; read-out: IC50* NRAS Q61R FRET data
Assignment: determine reported IC50 for the given molecules.

Item: C=CC(=O)N(C)[C@H]1C[C@@H](N(C)C(=O)N(C)[C@H](C(=O)N[C@H]2Cc3nc(cs3)-c3ccc4c(c3)c(c(-c3cccnc3[C@H](C)OC)n4CC)CC(C)(C)COC(=O)[C@@H]3CCCN(N3)C2=O)C(C)C)C1 (atropisomer, axis not shown) Test system: NRAS Q61R (Homo sapiens (Human), UniProt P01111+P62937, Q61R) Read-out: IC50 Value: ? 10 to 100 nM

Given the entry CCn1c(-c2cccnc2[C@H](C)OC)c2c3cc(ccc31)N1CCO[C@@H](C[C@H](NC(=O)[C@H](C(C)C)N3CC[C@@]4(CCN(C(=O)C#CC(C)(C)N(C)C)C4)C3=O)C(=O)N3CCC[C@H](N3)C(=O)OCC(C)(C)C2)C1 (atropisomer, axis not shown) , what IC50 was observed with NRAS Q61R (Homo sapiens (Human), UniProt P01111+P62937, Q61R)? > 10000 nM

Request - read-out IC50 | tested on NRAS Q61R (Homo sapiens (Human), UniProt P01111+P62937, Q61R) | molecule C=CC(=O)N1CCC2(CC1)CCN2C(=O)N(C)[C@H](C(=O)N[C@H]1Cc2nc(cs2)-c2ccc3c(c2)c(c(-c2cccnc2[C@H](C)OC)n3CC)CC(C)(C)COC(=O)[C@@H]2CCCN(N2)C1=O)C(C)C (atropisomer, axis not shown) 10 to 100 nM

The reported measurements were obtained from patent US11566007B2.
